test system: production of prostaglandin E2 by human fibroblasts; assay: Inhibition of Production of Prostaglandin E2 in Human Fibroblasts (IL-1 stimulation); format: cell-based; details: Fibroblast; human fibroblasts under stimulation with IL-1
pIC50: −log10 of the molar value.
readoutKind: pIC50

{"molecule": "CC(C)CN(Cc1ccccc1)[C@@H]1C[C@@H](CNC(=O)c2ccc(/C=C3\\SC(=O)NC3=O)cc2)N(C(=O)c2ccccc2C(=O)c2ccc(F)cc2)C1 [Compound M-5]", "measurementTarget": "production of prostaglandin E2 by human fibroblasts", "readoutKind": "pIC50", "reportedMeasurement": 5.52}
{"molecule": "Cc1ccccc1CO[C@@H]1C[C@@H](CNC(=O)c2ccc(/C=C3\\SC(=O)NC3=O)cc2)N(C(=O)c2ccccc2C(=O)c2ccc(F)cc2)C1 [Compound A-5]", "measurementTarget": "production of prostaglandin E2 by human fibroblasts", "readoutKind": "pIC50", "reportedMeasurement": 6.59}
{"molecule": "CN(Cc1ccccc1-c1ccccc1)[C@@H]1C[C@@H](C(=O)Nc2ccc(/C=C3\\SC(=O)NC3=O)cc2)N(C(=O)c2ccccc2C(=O)c2ccc(F)cc2)C1 [Compound N-2]", "measurementTarget": "production of prostaglandin E2 by human fibroblasts", "readoutKind": "pIC50", "reportedMeasurement": 5.74}
{"molecule": "O=C1NC(=O)/C(=C/c2ccc(C(=O)NC[C@@H]3C[C@@H](OCc4ccccc4-c4ccccc4)CN3C(=O)c3ccccc3C(=O)c3ccc(F)cc3)cc2)S1 [Compound A-16]", "measurementTarget": "production of prostaglandin E2 by human fibroblasts", "readoutKind": "pIC50", "reportedMeasurement": 6.59}
{"molecule": "O=C1NC(=O)/C(=C/c2ccc(S(=O)(=O)NC[C@@H]3C[C@@H](OCc4ccccc4-c4ccccc4)CN3C(=O)c3ccccc3C(=O)c3ccc(F)cc3)cc2)S1 [Compound A-62]", "measurementTarget": "production of prostaglandin E2 by human fibroblasts", "readoutKind": "pIC50", "reportedMeasurement": 5.96}
{"molecule": "O=C1NC(=O)/C(=C/c2ccc(C(=O)NC[C@@H]3C[C@@H](Oc4cccc5c4CCCC5)CN3C(=O)c3ccccc3C(=O)c3ccc(F)cc3)cc2)S1 [Compound A-77]", "measurementTarget": "production of prostaglandin E2 by human fibroblasts", "readoutKind": "pIC50", "reportedMeasurement": 6.46}
{"molecule": "O=C1NC(=O)/C(=C/c2ccc(NC(=O)[C@@H]3C[C@@H](OCc4ccccc4-c4ccccc4)CN3C(=O)c3ccccc3C(=O)c3ccc(Cl)cc3)cc2)S1 [Compound B-3]", "measurementTarget": "production of prostaglandin E2 by human fibroblasts", "readoutKind": "pIC50", "reportedMeasurement": 5.41}
{"molecule": "O=C1NC(=O)/C(=C/c2ccc(C(=O)NC[C@@H]3C[C@@H](COc4ccccc4-c4ccccc4)CN3C(=O)c3ccccc3C(=O)c3ccc(F)cc3)cc2)S1 [Compound O-2]", "measurementTarget": "production of prostaglandin E2 by human fibroblasts", "readoutKind": "pIC50", "reportedMeasurement": 6.64}
{"molecule": "CN(C(c1ccccc1)c1ccccc1)[C@@H]1C[C@@H](CNC(=O)c2ccc(/C=C3\\SC(=O)NC3=O)cc2)N(C(=O)c2ccccc2C(=O)c2ccc(F)cc2)C1 [Compound M-12]", "measurementTarget": "production of prostaglandin E2 by human fibroblasts", "readoutKind": "pIC50", "reportedMeasurement": 6.64}
{"molecule": "O=C1NC(=O)/C(=C/c2ccc(C(=O)NC[C@@H]3C[C@@H](Oc4ccccc4-c4cccc5ccccc45)CN3C(=O)c3ccccc3C(=O)c3ccc(F)cc3)cc2)S1 [Compound A-94]", "measurementTarget": "production of prostaglandin E2 by human fibroblasts", "readoutKind": "pIC50", "reportedMeasurement": 5.85}
{"molecule": "O=C1NC(=S)S/C1=C\\c1ccc(C(=O)NC[C@@H]2C[C@@H](OCc3ccccc3-c3ccccc3)CN2C(=O)c2ccccc2C(=O)c2ccc(F)cc2)cc1 [Compound A-20]", "measurementTarget": "production of prostaglandin E2 by human fibroblasts", "readoutKind": "pIC50", "reportedMeasurement": 6.46}
